System: Pseudomonas aeruginosa
PROCEDURE SUMMARY: Antimicrobial activity against Pseudomonas aeruginosa isolate 944 by broth microdilution method
Assay type: functional
MEASUREMENT NAME: MIC (µg/mL)
Respond with the bare value in µg/mL.

# count of solved cases: 4
MOLECULE | VALUE OBSERVED
CC(C)(O/N=C(\C(=O)N[C@@H]1C(=O)N2C(C(=O)[O-])=C(C[n+]3ccccc3)CS[C@H]12)c1csc(N)n1)C(=O)O | 4
O=C(O)c1cn(C2CC2)c2cc(N3CCNCC3)c(F)cc2c1=O | 4
C[C@@H](O)[C@H]1C(=O)N2C(C(=O)O)=C(S[C@@H]3CN[C@H](C(=O)N(C)C)C3)[C@H](C)[C@H]12 | 12
NC[C@H]1O[C@H](O[C@H]2[C@H](O)[C@@H](O[C@H]3O[C@H](CO)[C@@H](O)[C@H](N)[C@H]3O)[C@H](N)C[C@@H]2N)[C@H](N)C[C@@H]1O | 96

Exercise: Give the value of MIC reported for the following: CO/N=C(\C(=O)N[C@@H]1C(=O)N2C(C(=O)[O-])=C(C[N+]3(C)CCCC3)CS[C@H]12)c1csc(N)n1 [CEFEPIME]
Key: 16

Exercise: Give the value of MIC reported for the following: C[C@@H](O)[C@H]1C(=O)N2C(C(=O)O)=C(S[C@@H]3CN[C@H](CNS(N)(=O)=O)C3)[C@H](C)[C@H]12
Key: 4

###

Tested on: Pseudomonas aeruginosa
PROCEDURE SUMMARY: Antimicrobial activity against Pseudomonas aeruginosa isolate 913 by broth microdilution method
Format: functional
MEASUREMENT NAME: MIC (µg/mL)
Respond with the bare value in µg/mL.

# count of solved cases: 3
COMPOUND | UNIT ANNOTATION | MIC
CC(C)(O/N=C(\C(=O)N[C@@H]1C(=O)N2C(C(=O)[O-])=C(C[n+]3ccccc3)CS[C@H]12)c1csc(N)n1)C(=O)O | µg/mL | 24
NC[C@H]1O[C@H](O[C@H]2[C@H](O)[C@@H](O[C@H]3O[C@H](CO)[C@@H](O)[C@H](N)[C@H]3O)[C@H](N)C[C@@H]2N)[C@H](N)C[C@@H]1O | µg/mL | 96
CO/N=C(\C(=O)N[C@@H]1C(=O)N2C(C(=O)[O-])=C(C[N+]3(C)CCCC3)CS[C@H]12)c1csc(N)n1 [CEFEPIME] | µg/mL | 12

Let us examine a further case.
Exercise: Give the value of MIC reported for the following: C[C@@H](O)[C@H]1C(=O)N2C(C(=O)O)=C(S[C@@H]3CN[C@H](CNS(N)(=O)=O)C3)[C@H](C)[C@H]12
Key: 16

###

Readings of MIC for the listed molecules
Test system: Pseudomonas aeruginosa
PROCEDURE SUMMARY: Antimicrobial activity against Pseudomonas aeruginosa isolate 968 by broth microdilution method
Format: functional
Respond with the bare value in µg/mL.

GIVEN SMILES | ASSAYED TARGET | MEASUREMENT NAME | UNIT ANNOTATION | VALUE OBSERVED
NC[C@H]1O[C@H](O[C@H]2[C@H](O)[C@@H](O[C@H]3O[C@H](CO)[C@@H](O)[C@H](N)[C@H]3O)[C@H](N)C[C@@H]2N)[C@H](N)C[C@@H]1O | Pseudomonas aeruginosa | MIC | µg/mL | 96

Exercise: Give the value of MIC reported for the following: CC(C)(O/N=C(\C(=O)N[C@@H]1C(=O)N2C(C(=O)[O-])=C(C[n+]3ccccc3)CS[C@H]12)c1csc(N)n1)C(=O)O
Key: 24

###

Readings of MIC for the listed molecules
Test system: Pseudomonas aeruginosa
PROCEDURE SUMMARY: Antimicrobial activity against Pseudomonas aeruginosa isolate 878 by broth microdilution method
Assay type: functional

MOLECULE | MIC
C[C@@H](O)[C@H]1C(=O)N2C(C(=O)O)=C(S[C@@H]3CN[C@H](C(=O)N(C)C)C3)[C@H](C)[C@H]12 | ≥ 32 µg/mL
C[C@@H](O)[C@H]1C(=O)N2C(C(=O)O)=C(S[C@@H]3CN[C@H](CNS(N)(=O)=O)C3)[C@H](C)[C@H]12 | 8 µg/mL
NC[C@H]1O[C@H](O[C@H]2[C@H](O)[C@@H](O[C@H]3O[C@H](CO)[C@@H](O)[C@H](N)[C@H]3O)[C@H](N)C[C@@H]2N)[C@H](N)C[C@@H]1O | 1.5 µg/mL
CO/N=C(\C(=O)N[C@@H]1C(=O)N2C(C(=O)[O-])=C(C[N+]3(C)CCCC3)CS[C@H]12)c1csc(N)n1 [CEFEPIME] | 24 µg/mL

Exercise: Give the value of MIC reported for the following: CC(C)(O/N=C(\C(=O)N[C@@H]1C(=O)N2C(C(=O)[O-])=C(C[n+]3ccccc3)CS[C@H]12)c1csc(N)n1)C(=O)O
Key: 12 µg/mL

Exercise: Give the value of MIC reported for the following: O=C(O)c1cn(C2CC2)c2cc(N3CCNCC3)c(F)cc2c1=O
Key: > 32 µg/mL

###

System: Pseudomonas aeruginosa
PROCEDURE SUMMARY: Antimicrobial activity against Pseudomonas aeruginosa isolate 1036 by broth microdilution method
Assay type: functional
MEASUREMENT NAME: log10 of MIC (log10 of the value in µg/mL)
Hi team, quick reminder: these entries are log10 of MIC (µg/mL).

# count of solved cases: 3
COMPOUND | log10 of MIC
CO/N=C(\C(=O)N[C@@H]1C(=O)N2C(C(=O)[O-])=C(C[N+]3(C)CCCC3)CS[C@H]12)c1csc(N)n1 [CEFEPIME] | 1.08
C[C@@H](O)[C@H]1C(=O)N2C(C(=O)O)=C(S[C@@H]3CN[C@H](CNS(N)(=O)=O)C3)[C@H](C)[C@H]12 | 0.30
NC[C@H]1O[C@H](O[C@H]2[C@H](O)[C@@H](O[C@H]3O[C@H](CO)[C@@H](O)[C@H](N)[C@H]3O)[C@H](N)C[C@@H]2N)[C@H](N)C[C@@H]1O | -0.90

Exercise: Give the value of log10 of MIC reported for the following: CC(C)(O/N=C(\C(=O)N[C@@H]1C(=O)N2C(C(=O)[O-])=C(C[n+]3ccccc3)CS[C@H]12)c1csc(N)n1)C(=O)O
Key: 0.30

Exercise: Give the value of log10 of MIC reported for the following: O=C(O)c1cn(C2CC2)c2cc(N3CCNCC3)c(F)cc2c1=O
Key: 0.48

Exercise: Give the value of log10 of MIC reported for the following: C[C@@H](O)[C@H]1C(=O)N2C(C(=O)O)=C(S[C@@H]3CN[C@H](C(=O)N(C)C)C3)[C@H](C)[C@H]12
Key: 0.60

###

System: Pseudomonas aeruginosa
PROCEDURE SUMMARY: Antimicrobial activity against Pseudomonas aeruginosa isolate 1006 by broth microdilution method
Format: functional
Readings of MIC for the listed compounds
Respond with the bare value in µg/mL.

# count of solved cases: 3
COMPOUND | UNIT ANNOTATION | MIC
CO/N=C(\C(=O)N[C@@H]1C(=O)N2C(C(=O)[O-])=C(C[N+]3(C)CCCC3)CS[C@H]12)c1csc(N)n1 [CEFEPIME] | µg/mL | 4
C[C@@H](O)[C@H]1C(=O)N2C(C(=O)O)=C(S[C@@H]3CN[C@H](CNS(N)(=O)=O)C3)[C@H](C)[C@H]12 [DORIPENEM] | µg/mL | 8
NC[C@H]1O[C@H](O[C@H]2[C@H](O)[C@@H](O[C@H]3O[C@H](CO)[C@@H](O)[C@H](N)[C@H]3O)[C@H](N)C[C@@H]2N)[C@H](N)C[C@@H]1O [TOBRAMYCIN] | µg/mL | 3

Let us examine a further case.
Exercise: Give the value of MIC reported for the following: CC(C)(O/N=C(\C(=O)N[C@@H]1C(=O)N2C(C(=O)[O-])=C(C[n+]3ccccc3)CS[C@H]12)c1csc(N)n1)C(=O)O [CEFTAZIDIME]
Key: 4

###

Tested on: Pseudomonas aeruginosa
PROCEDURE SUMMARY: Antimicrobial activity against Pseudomonas aeruginosa isolate 22 by broth microdilution method
Assay type: functional
MEASUREMENT NAME: MIC (µg/mL)
Respond with the bare value in µg/mL.

# count of solved cases: 2
COMPOUND | ASSAYED TARGET | MEASUREMENT NAME | UNIT ANNOTATION | VALUE OBSERVED
CO/N=C(\C(=O)N[C@@H]1C(=O)N2C(C(=O)[O-])=C(C[N+]3(C)CCCC3)CS[C@H]12)c1csc(N)n1 [CEFEPIME] | Pseudomonas aeruginosa | MIC | µg/mL | 16
NC[C@H]1O[C@H](O[C@H]2[C@H](O)[C@@H](O[C@H]3O[C@H](CO)[C@@H](O)[C@H](N)[C@H]3O)[C@H](N)C[C@@H]2N)[C@H](N)C[C@@H]1O [TOBRAMYCIN] | Pseudomonas aeruginosa | MIC | µg/mL | 0.5

Exercise: Give the value of MIC reported for the following: C[C@@H](O)[C@H]1C(=O)N2C(C(=O)O)=C(S[C@@H]3CN[C@H](CNS(N)(=O)=O)C3)[C@H](C)[C@H]12 [DORIPENEM]
Key: 8

Exercise: Give the value of MIC reported for the following: C[C@@H](O)[C@H]1C(=O)N2C(C(=O)O)=C(S[C@@H]3CN[C@H](C(=O)N(C)C)C3)[C@H](C)[C@H]12 [MEROPENEM]
Key: 16

Exercise: Give the value of MIC reported for the following: CC(C)(O/N=C(\C(=O)N[C@@H]1C(=O)N2C(C(=O)[O-])=C(C[n+]3ccccc3)CS[C@H]12)c1csc(N)n1)C(=O)O [CEFTAZIDIME]
Key: 16
